Test system: Candida albicans
Assay: Antifungal activity against Candida albicans clinical isolates after 48 hrs by broth microdilution method
Format: functional
Starred links: 1 amine or outer side, 2 acyl side, 3 side chain; linkers in the order of their positions; H or OH if unused. Positions of bridges follow the written chain, without caps; N, C: chain ends. Non-standard residues stand in square brackets, D forms with d. Residues, ends and D or L forms follow the SMILES beside them. *: point of attachment. hTyr(3S-OH,4S-OH,3'-OSO3H) = N[C@H](C(=O)O)[C@H](O)[C@@H](O)c1ccc(O)c(OS(=O)(=O)O)c1; Orn(4R-OH,5R-OH) = O=C([C@H](C[C@@H](O)[C@@H](O)N[*:3])N[*:1])[*:2]; Pro(3S-OH,4S-Me) = C[C@H]1CN[C@H](C(=O)O)[C@H]1O; X1 = CCCCCOc1ccc(-c2cc(-c3ccc(C(=O)*)cc3)no2)cc1; Gln(3R-OH) = NC(=O)C[C@@H](O)[C@H](N)C(=O)O; Hyp = O=C(O)[C@@H]1C[C@@H](O)CN1
Lab note: cut-off is 0.008 µg/mL. Strictly less in MIC90 is Y. Exactly 0.008 µg/mL or more is N.

molecule	target.of.assay	answer.label
OC(Cn1cncn1)(Cn1cncn1)c1ccc(F)cc1F [FLUCONAZOLE]	Candida albicans	N
C[C@@H]1[C@H](O)[C@@H](C)/C=C/C=C/C=C/C=C/C=C/C=C/C=C/[C@H](O[C@@H]2O[C@H](C)[C@@H](O)[C@H](N)[C@@H]2O)C[C@@H]2O[C@](O)(C[C@@H](O)C[C@@H](O)[C@H](O)CC[C@@H](O)C[C@@H](O)CC(=O)O[C@H]1C)C[C@H](O)[C@H]2C(=O)O [AMPHOTERICIN B]	Candida albicans	N
N=C(N)c1ccc(OCCCC2CCN(CCCOc3ccc(C(=N)N)cc3)CC2)cc1	Candida albicans	Y
CCCCCOc1ccc(-c2cc(-c3ccc(C(=O)N[C@H]4C[C@@H](O)[C@@H](O)NC(=O)[C@@H]5[C@@H](O)[C@@H](C)CN5C(=O)[C@H]([C@H](O)CC(N)=O)NC(=O)[C@H]([C@H](O)[C@@H](O)c5ccc(O)c(OS(=O)(=O)O)c5)NC(=O)[C@@H]5C[C@@H](O)CN5C(=O)[C@H]([C@@H](C)O)NC4=O)cc3)no2)cc1 [MICAFUNGIN] (X1-[Orn(4R-OH,5R-OH)]T[Hyp][hTyr(3S-OH,4S-OH,3'-OSO3H)][Gln(3R-OH)][Pro(3S-OH,4S-Me)]; lactam 1-C)	Candida albicans	N

The origin of these recorded values is ChEMBL document CHEMBL1255303.
